tested on: MCF7; assay: Cytotoxicity against human MCF7 cells assessed as reduction in cell viability incubated for 24 hrs by MTT assay; assay type: functional, cell-based; settings: MCF7, 24 h
testReadout: pIC50
pIC50 (log units): -log10 of the concentration in mol/L.

Summary line: Cc1ccc(C(C)C)cc1OCc1cn(CCCCCCOc2ccc3ccc(=O)oc3c2)nn1 , MCF7, reported pIC50 = 5.61

---

biological target: Carbonic anhydrase 2 (Homo sapiens); test: Binding affinity to human CA II assessed as inhibition constant by spectrophotometric analysis
testReadout: pKi
# pKi is unitless: minus log10 of the molar concentration; print number only

Looking up Cc1ccnc(NS(=O)(=O)c2ccc(NC(=S)NC(=O)c3ccc(F)cc3)cc2)n1 , I found its pKi recorded as 8.09
